Molecular target: APOL1 G1 (Homo sapiens, UniProt O14791, I384M/S342G)
Sequence (O14791 28-398 S342G/I384M): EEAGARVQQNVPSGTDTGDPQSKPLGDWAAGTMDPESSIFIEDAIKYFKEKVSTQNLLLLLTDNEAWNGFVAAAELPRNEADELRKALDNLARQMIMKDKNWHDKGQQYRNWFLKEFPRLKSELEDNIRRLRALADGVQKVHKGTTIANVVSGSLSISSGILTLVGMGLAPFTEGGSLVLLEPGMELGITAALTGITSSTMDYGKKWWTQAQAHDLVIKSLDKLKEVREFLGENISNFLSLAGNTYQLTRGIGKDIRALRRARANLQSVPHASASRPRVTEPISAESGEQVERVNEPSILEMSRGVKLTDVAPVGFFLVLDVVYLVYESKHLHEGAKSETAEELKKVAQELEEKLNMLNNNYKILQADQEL
Test: Trypanosoma brucei brucei Lysis Assay Using APOL1 Recombinant Protein (AlamarBlue viability readout)
Type: cell-based
Settings: Trypanosome Assay; read-out: Trypanosome Assay Max Activity (%)
Measured Emax values are reported for all entries that follow.
Give the value in % but do not write % after it.

Past entries and their recorded results:
[[record]]
molecule = "C[C@H]1C[C@@]2(C[C@@H](c3ccc(O)nn3)N1)OCCc1cc(Cl)sc12 (stereo in doubt)"
valuereported = 112

[[record]]
molecule = "C[C@H]1C[C@@]2(C[C@@H](c3ncccc3O)N1)OCCc1cc(Cl)sc12 (racemic)"
valuereported = 64.5

[[record]]
molecule = "COCc1cc([C@@H]2C[C@]3(C[C@H](C)N2)OCCc2cc(Cl)sc23)no1 (racemic)"
valuereported = 107

[[record]]
molecule = "COCC1CC2(CC(c3cn(C)nn3)N1)OCCc1cc(C(F)(F)F)sc12 (centres unmarked)"
valuereported = 100

[[record]]
molecule = "C[C@H]1C[C@@]2(C[C@@H](c3cccc(C(N)=O)c3)N1)OCCc1cc(Cl)sc12 (racemic)"
valuereported = 100


Emax for C[C@H]1C[C@@]2(C[C@@H](c3ccn(C)n3)N1)OCCc1cc(Cl)sc12 (racemic) is 98

Emax for Cc1nn(C)cc1[C@@H]1C[C@]2(C[C@H](C)N1)OCCc1cc(Cl)sc12 (racemic) is 83.7

Emax for C[C@H]1C[C@@]2(C[C@@H](c3cnn(-c4ccccc4)c3)N1)OCCc1cc(Cl)sc12 (racemic) is 105
